# experimental.system: recombinant purified human EHMT2 913-1193 (Homo sapiens, UniProt Q96KQ7)
# Construct: Recombinant purified human EHMT2 913-1193 (55 μM) synthesized by Viva was used for all experiments; purchased Viva
# Sequence (Q96KQ7 913-1193): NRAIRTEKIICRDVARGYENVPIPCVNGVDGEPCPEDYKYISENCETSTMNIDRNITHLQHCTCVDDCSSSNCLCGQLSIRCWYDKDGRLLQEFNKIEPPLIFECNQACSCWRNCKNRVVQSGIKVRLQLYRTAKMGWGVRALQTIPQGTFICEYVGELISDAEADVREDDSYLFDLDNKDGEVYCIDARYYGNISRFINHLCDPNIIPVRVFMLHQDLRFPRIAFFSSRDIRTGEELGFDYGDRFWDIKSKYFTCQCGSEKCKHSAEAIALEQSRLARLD
# method.notes: EHMT2 enzyme assay on histone peptide substrate (3H-SAM Flashplate)
# Type: biochemical
# measurement.context: read-out: EHMT2 PEP (IC50 μM)
measured.property: IC50

Sample records with IC50:
# molecule, IC50
measured = [
    ("COc1cc2c(cc1-n1cc([C@@H]3CCCN3)nn1)N=C(N)C21CCC1", "0.1 to 1 µM"),
    ("CNC(=O)c1cn(-c2cc(Nc3nc(C)cc(NC)n3)ccc2OC)nn1", "> 10 µM"),
    ("CNc1cc(C)nc(Nc2ccc(OC)c(-c3cc(C4CC4)ncn3)c2)n1", "> 10 µM"),
    ("CNc1cc(C)nc(Nc2ccc(OC)c(-n3nccc3CNC(C)=O)c2)n1", "> 10 µM"),
    ("CNc1cc(C)nc(Nc2ccc(OC)c(-c3cn[nH]c3)c2)n1", "> 10 µM"),
]

// next item, IC50 requested
Q: Look up and state reported IC50 for CNc1cc(C)nc(Nc2ccc(OC)c(-c3cc(C4CC4)on3)c2)n1
A: 1 to 10 µM

====

# experimental.system: recombinant purified human EHMT2 913-1193 (Homo sapiens)
# Construct: Recombinant purified human EHMT2 913-1193 (55 μM) synthesized by Viva was used for all experiments; purchased Viva
# method.notes: EHMT2 enzyme assay on histone peptide substrate (3H-SAM Flashplate)
# Type: biochemical
# measurement.context: read-out: EHMT2 PEP (IC50 μM)
Where a name gives a salt, the structure may show the parent alone.
measured.property: IC50

Sample records with IC50:
# molecule, IC50
rows = [
    ("CNc1ccnc(Nc2ccc(OC)c(-c3cc4[nH]ccc4cn3)c2)n1 [Compound 175]", "< 0.1 µM"),
    ("CNc1cc(C)nc(Nc2ccc(Cl)c(C(=O)Nc3nccs3)c2)n1 [Compound 246]", "1 to 10 µM"),
    ("CNc1cc(C)nc(Nc2ccc(OC)c(-c3nc4n(n3)CCNC4)c2)n1 [Compound 8, hydrochloride]", "> 10 µM"),
    ("CNc1cc(C)nc(Nc2ccc(C)c(-c3nc4ccncc4[nH]3)c2)n1 [Compound 279]", "< 0.1 µM"),
]

Q: Look up and state reported IC50 for CNc1cc(C)nc(Nc2ccc(OC)c(-c3cnc4cc[nH]c4c3)c2)n1 [Compound 223]
A: < 0.1 µM

Q: Look up and state reported IC50 for CNc1cc(C)nc(Nc2ccc(OC)c(-n3ncc4c3CCN(C)C4)c2)n1 [Compound 10]
A: 0.1 to 1 µM

Q: Look up and state reported IC50 for CNc1cc(C)nc(Nc2ccc(Cl)c(C(=O)Nc3ccncn3)c2)n1 [Compound 259]
A: > 10 µM

Q: Look up and state reported IC50 for CCNCc1cn(-c2cc(Nc3nccc(NC)n3)ccc2OC)nn1 [Compound 172]
A: 0.1 to 1 µM

Q: Look up and state reported IC50 for CNc1cc(C)nc(Nc2ccc(OC)c(-n3cc(CN4CCCC4)cn3)c2)n1 [Compound 5]
A: 1 to 10 µM

====

Recorded IC50 by entry
# experimental.system: EHMT1 (Homo sapiens, UniProt Q9H9B1)
# Sequence (Q9H9B1 1-1298): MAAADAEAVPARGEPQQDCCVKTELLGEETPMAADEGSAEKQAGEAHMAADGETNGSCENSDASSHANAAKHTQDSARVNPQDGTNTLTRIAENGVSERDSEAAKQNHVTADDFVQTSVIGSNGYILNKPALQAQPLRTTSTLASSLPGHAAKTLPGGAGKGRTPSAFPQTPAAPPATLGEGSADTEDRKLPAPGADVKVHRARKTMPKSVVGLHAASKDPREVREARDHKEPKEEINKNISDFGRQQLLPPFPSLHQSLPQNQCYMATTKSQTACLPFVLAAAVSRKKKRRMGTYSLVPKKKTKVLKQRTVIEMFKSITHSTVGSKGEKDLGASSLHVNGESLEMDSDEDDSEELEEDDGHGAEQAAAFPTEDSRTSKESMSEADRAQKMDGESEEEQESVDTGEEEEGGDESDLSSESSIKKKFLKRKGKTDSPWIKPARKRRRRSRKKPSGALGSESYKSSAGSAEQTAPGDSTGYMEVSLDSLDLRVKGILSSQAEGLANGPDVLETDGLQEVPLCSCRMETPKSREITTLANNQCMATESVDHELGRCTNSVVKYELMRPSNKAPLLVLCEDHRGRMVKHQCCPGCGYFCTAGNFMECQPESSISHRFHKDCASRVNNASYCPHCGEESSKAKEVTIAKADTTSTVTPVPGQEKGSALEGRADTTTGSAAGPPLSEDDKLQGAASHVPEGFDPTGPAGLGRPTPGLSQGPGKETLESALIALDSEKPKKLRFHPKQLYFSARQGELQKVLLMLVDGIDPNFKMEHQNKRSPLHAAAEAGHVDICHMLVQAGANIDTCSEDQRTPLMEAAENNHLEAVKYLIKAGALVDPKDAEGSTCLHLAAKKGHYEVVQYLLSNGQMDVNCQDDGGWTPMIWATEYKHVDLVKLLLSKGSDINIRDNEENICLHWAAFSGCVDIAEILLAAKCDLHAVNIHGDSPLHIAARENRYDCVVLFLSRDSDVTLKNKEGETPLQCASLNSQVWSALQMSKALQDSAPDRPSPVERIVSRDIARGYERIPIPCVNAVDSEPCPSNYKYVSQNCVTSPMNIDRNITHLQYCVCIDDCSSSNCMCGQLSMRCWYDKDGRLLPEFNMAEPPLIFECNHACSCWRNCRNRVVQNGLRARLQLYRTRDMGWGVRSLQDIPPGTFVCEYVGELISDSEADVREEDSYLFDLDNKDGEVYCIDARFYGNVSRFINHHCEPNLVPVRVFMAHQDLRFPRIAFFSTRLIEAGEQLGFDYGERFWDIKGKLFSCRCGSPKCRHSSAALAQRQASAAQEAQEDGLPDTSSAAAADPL
# method.notes: EHMT1 PEP (EHMT1 peptide enzyme assay)
# Assay type: biochemical
# measurement.context: peptide substrate enzyme assay

Sample records with IC50:
# molecule, IC50
measured = [
    ("COc1cc(NC2CCNCC2)ncc1-c1cc2ccncc2[nH]1 [Compound 205]", "1 to 10 µM"),
    ("CNc1cc(C)nc(Nc2ccc(OC)c(-n3cc(C(C)(C)NC)nn3)c2)n1 [Compound 166]", "1 to 10 µM"),
    ("CNc1cc(C)nc(Nc2ccc(OC)c(-c3cnc4cc[nH]c4c3)c2)n1 [Compound 223]", "< 0.1 µM"),
    ("CNc1cc(C)nc(Nc2ccc(OC)c(-c3nnc(CN(C)C)[nH]3)c2)n1 [Compound 73]", "1 to 10 µM"),
]

Q: Look up and state reported IC50 for CNc1cc(C)nc(Nc2ccc(OC)c(-n3cc4c(n3)CCOC4)c2)n1 [Compound 43]
A: 1 to 10 µM

Q: Look up and state reported IC50 for Cc1cc(NC2CCNCC2)ncc1-c1cc2[nH]ccc2cn1 [Compound 247]
A: 1 to 10 µM

Q: Look up and state reported IC50 for CNc1cc(C)nc(Nc2ccc(OC)c(-c3cc4[nH]ccc4c(CNC(C)=O)n3)c2)n1 [Compound 293]
A: < 0.1 µM

Q: Look up and state reported IC50 for CNc1cc(C)nc(Nc2ccc(OC)c(-n3cc(CN4CCCC4)cn3)c2)n1 [Compound 5]
A: 0.1 to 1 µM

Q: Look up and state reported IC50 for CNc1nc2cc(-n3cc(CN(C)C)nn3)c(OC)cc2n1C [Compound 163]
A: 1 to 10 µM

Q: Look up and state reported IC50 for CNc1cc(C)nc(Nc2ccc(OC)c(-n3cc([C@@H]4CCCN4)nn3)c2)n1 [Compound 212]
A: < 0.1 µM

Q: Look up and state reported IC50 for CCNCc1cnn(-c2cc(Nc3nccc(NC)n3)ccc2OC)c1 [Compound 185]
A: 0.1 to 1 µM

Q: Look up and state reported IC50 for CNc1cc(C)nc(Nc2cnc(C)c(-c3cc4ccncc4[nH]3)c2)n1 [Compound 311]
A: > 10 µM

Q: Look up and state reported IC50 for CNc1cc(C)nc(Nc2ccc(OC)c(-c3nnc4n3CCN(C(=O)OC(C)(C)C)C4)c2)n1 [Compound 77]
A: > 10 µM

Q: Look up and state reported IC50 for CNc1cc(C)nc(Nc2ccc(OC)c(-n3cc(C)c4c3CCN(C)C4)c2)n1 [Compound 81]
A: 1 to 10 µM

These entries and their values trace back to patent US20220235065A1.
